tested on: Saccharomyces cerevisiae; experiment: Inhibition of Saccharomyces cerevisiae top1delta by yeast halo assay; format: functional, organism-based
Activity calls are given as the source filed them. No cut-off for these calls is given here.
Outcome codes: yes for active, no for inactive

{"columns": ["COMPOUND", "MEASURED_ON", "GROUP_LABEL"],
 "data": [
  ["CNc1c2c(c3nc4ccccc4c4c3c1N=C4)NCCC2=O [PLAKINIDINE A]", "Saccharomyces cerevisiae", "no"],
  ["O=C1CCNC2=C1C(=O)c1[nH]cc3c1c2nc1ccccc13 [PLAKINIDINE E]", "Saccharomyces cerevisiae", "yes"],
  ["CCC/C=C/CCCCCCCCCC[C@]1(C)OC(=O)[C@@H](CO)[C@@H]1O [AMPHIASTERIN B1]", "Saccharomyces cerevisiae", "no"],
  ["CCC/C=C/CCCCCCCCCCCC[C@]1(C)OC(=O)[C@@H](CO)[C@@H]1O [AMPHIASTERIN B2]", "Saccharomyces cerevisiae", "no"]
]}

====

test: Cytotoxicity against human H116 cells by disk diffusion assay; assay type: cell-based

{"columns": ["SAMPLE_SMILES", "Activity"],
 "data": [
  ["O=C1CCNC2=C1C(=O)c1[nH]cc3c1c2nc1ccccc13", "Not Active"],
  ["CCC/C=C/CCCCCCCCCCCC[C@]1(C)OC(=O)[C@@H](CO)[C@@H]1O", "Not Active"],
  ["CCC/C=C/CCCCCCCCCC[C@]1(C)OC(=O)[C@@H](CO)[C@@H]1O", "Not Active"]
]}

====

tested on: Saccharomyces cerevisiae; experiment: Inhibition of wild type Saccharomyces cerevisiae by yeast halo assay; assay type: functional, organism-based
Calls of active or inactive are those of the source. The calls are words filed in the database; no cut-off is given here.

{"columns": ["SAMPLE_SMILES", "Activity"],
 "data": [
  ["CCC/C=C/CCCCCCCCCCCC[C@]1(C)OC(=O)[C@@H](CO)[C@@H]1O", "inactive"],
  ["CNc1c2c(c3nc4ccccc4c4c3c1N=C4)NCCC2=O", "inactive"],
  ["CCC/C=C/CCCCCCCCCC[C@]1(C)OC(=O)[C@@H](CO)[C@@H]1O", "inactive"]
]}
